# System: liver (acute liver toxicity)
# Assay Summary: plasma aminotransferase activity (ALT, AST) after intragastric dosing
# Type: in vivo, C57BL/6 mice
# Condition Description: mean of 8 mice; 5-hydroxy-7-methyloxindole 540 mg/kg total, 7 h after second injection
Metric Name: AST, Mean (U/L)
Respond numerically; units are U/L and should not be typed.

Notebook entry, liver (acute liver toxicity) assay: AST, Mean of Cc1cc(O)cc2c1NC(=O)C2 [5-hydroxy-7-methyloxindole, 5-Hydroxy-7-methyloxindole] = ?
95
